# Assay: ADME solubility determination in PBS at pH 2.0 and pH 7.4
# Format: physicochemical
# Study conditions: phosphate buffered saline, 25 °C, pH 2, aqueous buffer, thermodynamic from solid, PBS pH 2.0, 25° C., read-out: Solubility at pH 2.0
Measured property: solubility at 24 h

The examples below pair each entry with its known result.
1) CC(C)n1ncc(Cl)c1-c1cc2n(n1)CCC(=O)N2Cc1ccc(-c2ncccc2N(C)C)c(Cl)c1 :: ≥ 10 µM
2) COc1ncnc(C2CC2)c1-c1cc2n(n1)CCC(=O)N2Cc1ccc(-n2nc(C#N)cc2OC)c(F)c1 :: ≥ 10 µM
3) COc1ncnc(C2CC2)c1-c1nc2n(n1)CCC(=O)N2Cc1ccc(-c2nc(C(F)(F)F)cn2C(C)C)c(F)c1 :: < 10 µM
4) COc1cc(C#N)nn1-c1ccc(CN2C(=O)CCn3nc(-c4c(Cl)cnn4C(C)C)cc32)cc1 :: < 10 µM

Hi, could you look up solubility at 24 h for each item in my list?
1. CCn1cc(C(F)(F)F)nc1-c1ccc(N(C)C2CCCn3nc(-c4c(Cl)cnn4C(C)C)cc32)cc1 (centres unmarked)
2. CC(C)Oc1cccnc1-c1ccc(CN2C(=O)CCn3nc(-c4c(Cl)cnn4C(C)C)cc32)cc1
3. COc1ncnc(C2CC2)c1-c1cc2n(n1)CCC(=O)N2Cc1ccc(-n2nc(C(F)(F)F)cc2OC)c(F)c1
4. Cc1cnn(C(C)C)c1-c1cc2n(n1)CCCN2Cc1ccc(-c2nc(C(F)(F)F)cn2C)c(F)c1
5. CCn1cc(C(F)(F)F)nc1-c1ccc(CN2C(=O)CCn3nc(-c4c(C)cnn4C(C)C)cc32)cc1
6. CCn1cc(Cl)nc1-c1ccc(CN2C(=O)CCn3nc(-c4c(Cl)cnn4C(C)C)cc32)cc1

Outgoing:
["< 10 µM", "< 10 µM", "< 10 µM", "≥ 10 µM", "≥ 10 µM", "< 10 µM"]

---

# Tested on: Ub-PCNA levels in the nucleus of ES2 cells (USP1 activity)
# Assay: ES2 Ub-PCNA immunofluorescence (IF) assay
# Format: cell-based
# Study conditions: Homo sapiens, ES-2; ES2 cells, 3 hours, Ub-PCNA immunofluorescence; read-out: USP1 IC50 (Ub-PCNA)
Measured property: IC50

Worked cases, answers included:
1) CC1CCn2nc(-c3c(Cl)cnn3C(C)C)cc2N1Cc1ccc(-c2nc(C(F)(F)F)cn2C(C)C)c(F)c1 (stereo not shown) :: < 0.1 µM
2) COc1ncnc(C2CC2)c1-c1cc2n(n1)CCC(=O)N2Cc1ccc(-n2nc(C(F)(F)F)cc2OC)cc1 :: 0.1 to 0.5 µM
3) CCn1cc(C(F)(F)F)nc1-c1ccc(NC2CCCn3nc(-c4c(OC(F)F)ncnc4C4CC4)cc32)cc1 (stereo not shown) :: < 0.1 µM
4) COc1ncnc(C2CC2)c1-c1nc2n(n1)CCC(=O)N2Cc1ccc(-c2nc(C(F)(F)F)cn2C)c(F)c1 :: < 0.1 µM

State recorded IC50 for all listed compounds.
1. CCn1cc(C(F)(F)F)nc1-c1ccc(CN2C(=O)C(N(C)C)Cn3nc(-c4c(Cl)cnn4C(C)C)cc32)cc1 (stereo not shown)
2. Cc1cnn(C(C)C)c1-c1cc2n(n1)CCC(=O)N2Cc1ccc(-c2nc(C(F)(F)F)cn2C)cc1
3. CCn1cc(C(F)(F)F)nc1-c1ccc(N[C@H]2CCCn3nc(-c4c(OC)ncnc4C4CC4)cc32)cc1 (single isomer, unassigned)
4. Cc1cnn(C(C)C)c1-c1nc2n(n1)CCC(=O)N2Cc1ccc(-c2nc(C(F)(F)F)cn2C)cc1

Outgoing:
0.1 to 0.5 µM
> 0.5 µM
0.1 to 0.5 µM
< 0.1 µM

Ref: patent US20230219965A1
